Molecular target: T1, C-terminally truncated Ste2p V49D (Saccharomyces cerevisiae, UniProt D6VTK4 1-303, V49D)
T1 sequence (looked up): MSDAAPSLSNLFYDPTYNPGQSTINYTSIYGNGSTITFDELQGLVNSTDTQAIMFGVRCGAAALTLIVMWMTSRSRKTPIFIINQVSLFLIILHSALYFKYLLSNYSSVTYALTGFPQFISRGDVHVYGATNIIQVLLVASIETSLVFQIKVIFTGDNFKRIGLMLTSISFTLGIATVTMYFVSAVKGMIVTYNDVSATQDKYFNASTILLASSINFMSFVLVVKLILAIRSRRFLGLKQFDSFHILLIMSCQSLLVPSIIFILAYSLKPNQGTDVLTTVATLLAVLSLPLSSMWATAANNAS
Assay: flow cytometry on cells
readout.kind: Kd (nM)
Numeric only. Scale: nM

Qu. Fill in: Kd of WHWLQLKPGQPMY (NBD (7-nitrobenz-2-oxa-1,3-diazol-4-yl) conjugated to the lysine at position 7; norleucine at position 12 in place of methionine) [[K^7(NBD),Nle^12] α-factor] is ___
Ans. 35

All values here come from paper PMC4405178.
